Tested on: IGROV-ET
Test: SRB colorimetric cell growth inhibition assay, IGROV-ET (ET-743 resistant)
Type: cell-based
Conditions: Homo sapiens, IGROV-ET; GI=growth inhibition; read-out: GI50 IGROV-ET
Protocol: The finality of these assays is to interrupt the growth of an “in vitro” tumor cell culture by means a continued exhibition of the cells to the sample to be testing. A colorimetric type of assay, using sulforhodamine B (SRB) reaction has been adapted for a quantitative measurement of cell growth and viability (following the technique described by P. A. Skehan, et al., J. Natl. Cancer Inst. 1990, 82, 1107-1112). […] The values for mean +/− SD of data from triplicate wells are calculated. […]
Experimental Endpoint: GI50
Quick note: unit goes after the number.

**Query** I'd like to know its GI50. The compound in question is "COc1cc(-c2c3c4cc(OC)c(OC(=O)[C@H](C)NC(=O)OC(C)(C)C)cc4oc(=O)c3n3ccc4c(OC(=O)[C@H](C)NC(=O)OC(C)(C)C)c(OC)c(OC)cc4c23)ccc1OC(=O)[C@H](C)NC(=O)OC(C)(C)C"
**Result** 678 nM

**Query** I'd like to know its GI50. The compound in question is "COc1cc(-c2c3n(c4c(=O)oc5cc(OC(=O)[C@H](CO)NC(=O)OC(C)(C)C)c(OC)cc5c24)CCc2c-3cc(OC)c(OC)c2OC(=O)[C@H](CO)NC(=O)OC(C)(C)C)ccc1OC(=O)[C@H](CO)NC(=O)OC(C)(C)C"
**Result** 2560 nM

**Query** I'd like to know its GI50. The compound in question is "COc1cc(-c2c3n(c4c(=O)oc5cc(O)c(OC)cc5c24)CCc2cc(O)c(OC)cc2-3)ccc1O"
**Result** 9670 nM

**Query** I'd like to know its GI50. The compound in question is COc1cc(-c2c3c4cc(OC)c(O)cc4oc(=O)c3n3ccc4cc(O)c(OC)cc4c23)ccc1O [Compound 3, lamellarin D, reference compound]
**Result** 214 nM

**Query** I'd like to know its GI50. The compound in question is "COc1cc(-c2c3c4cc(OC)c(OC(=O)[C@@H](N)CC(C)C)cc4oc(=O)c3n3ccc4cc(OC(=O)[C@@H](N)CC(C)C)c(OC)cc4c23)ccc1OC(=O)[C@@H](N)CC(C)C"
**Result** 50 nM
